Listed here are variants together with their documented protein stability index.
B1: TNXB (parent)
chain: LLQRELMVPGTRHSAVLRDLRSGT

Variants of: B1
Experiment: protein stability index of a GFP-peptide fusion (GPS, HEK-293T) (PSI 1-6); higher = more stable;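 further: lentivirally expressed fusions sorted by FACS into six bins by GFP to DsRed ratio, PSI derived from sequencing read proportions per bin multiplied by bin number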
Settings: c terminus: a fixed tail appended
READOUT_NAME: protein stability index

[[record]]
variant_designation = "T11K"
readout_value = 2.32

[[record]]
variant_designation = "S14W"
readout_value = 2.11

[[record]]
variant_designation = "A15W"
readout_value = 3.49

[[record]]
variant_designation = "S22H"
readout_value = 2.2

[[record]]
variant_designation = "G10C"
readout_value = 1.43

[[record]]
variant_designation = "A15S"
readout_value = 2.27

[[record]]
variant_designation = "T24N"
readout_value = 2.37

[[record]]
variant_designation = "G23I"
readout_value = 2.35

[[record]]
variant_designation = "E5Q"
readout_value = 2.6

[[record]]
variant_designation = "L17R"
readout_value = 3.46

[[record]]
variant_designation = "T24K"
readout_value = 2.03

[[record]]
variant_designation = "G10R"
readout_value = 2.9

[[record]]
variant_designation = "G23T"
readout_value = 2.43

[[record]]
variant_designation = "L1W"
readout_value = 1.61

[[record]]
variant_designation = "L1Q"
readout_value = 3.22

[[record]]
variant_designation = "D19T"
readout_value = 2.46

[[record]]
variant_designation = "T24R"
readout_value = 2.88

